Kindly supply the reported MIC50 values for the records listed here.
- Tested on: Enterobacter cloacae 3MRGN (clinical bronchial aspirate isolate)
- assay details: MIC 50, broth micro-dilution, clinical isolate
- Assay type: cell-based
- condition parameters: E. Cloacae clinical isolate
- Procedure: 3.2 Against Selected Bacteria of the ESKAPE Panel and Enterococcus faecalis (DSM Strains) Tested reference compounds. Amikacin sulfate (Cat. No. 01693, Chem-Impex), Gentamicin sulfate (Cat. No. G4918, Sigma Aldrich). Microbial strains. […] Inoculum preparation. […] A single colony was inoculated in MH2 media and grown at 37° C. and 200 rpm to an optical density (measured by UV/Vis spectroscopy) of 0.6-0.8 at 600 nm. […]
Answers are plain numbers, in µmol/L.

Below, each entry is followed by its recorded MIC50 result.
# compound, tested target, measured attribute, val
records = [
    ("NCC[C@H](O)C(=O)N[C@@H]1CC(N)[C@@H](O[C@H]2OC(CN)[C@@H](O)CC2N)[C@H](F)C1OC1O[C@H](CO)[C@@H](O)C(N)[C@H]1O (some centres unmarked)", "Enterobacter cloacae 3MRGN (clinical bronchial aspirate isolate)", "MIC50", 1),
    ("NCC[C@H](O)C(=O)N[C@@H]1CC(N)[C@@H](O[C@H]2OC(CN)[C@@H](O)[C@@H](O)C2N)[C@H](O)C1OC1O[C@H](CO)[C@@H](O)C(N)[C@H]1O (stereo partly drawn) [ABX4002, 3′Epi-KanaB-AHB]", "Enterobacter cloacae 3MRGN (clinical bronchial aspirate isolate)", "MIC50", 4),
    ("NCCC(O)C(=O)NC1CC(N)C(OC2OC(CN)C(O)C(O)C2O)C(F)C1OC1OC(CO)C(O)C(N)C1O (stereo not drawn) [ABX3005, 3′Epi-KanaA-AHB-F]", "Enterobacter cloacae 3MRGN (clinical bronchial aspirate isolate)", "MIC50", 4),
    ("NCCC(O)C(=O)NC1CC(N)C(OC2OC(CN)C(O)C(O)C2N)C(O)C1OC1OC(CO)C(O)C(N)C1O (centres unmarked)", "Enterobacter cloacae 3MRGN (clinical bronchial aspirate isolate)", "MIC50", 2),
    ("N=C(N)NC1[C@@H](O)C(OC2[C@@H](F)[C@H](O[C@H]3OC(CN)[C@@H](O)[C@H](O)C3N)C(N)C[C@H]2NC(=O)[C@@H](O)CCN)O[C@H](CO)[C@H]1O (stereo partly drawn) [ABX4004, 3′epi-KanaB-AHB-F-Gua]", "Enterobacter cloacae 3MRGN (clinical bronchial aspirate isolate)", "MIC50", 1),
]

Item N=C(N)NC1[C@@H](O)C(OC2[C@@H](O)[C@H](O[C@H]3OC(CN)[C@@H](O)[C@H](O)C3N)C(N)C[C@H]2NC(=O)[C@@H](O)CCN)O[C@H](CO)[C@H]1O (some centres unmarked) has what recorded MIC50?
2

----------
Kindly supply the reported MIC90 values for the records listed here.
- System: clinical isolates of multidrug-resistant Klebsiella pneumoniae (and ATCC43816)
- assay details: MIC determination at Fidelta, clinical isolates
- Format: cell-based
- condition parameters: Klebsiella pneumoniae, ATCC43816, KP-1937; Blood/VIM, ESBL; read-out: MIC 90
Answers are plain numbers, in µg/mL.

# compound, MIC90 [µg/mL]
records = [
    ("N=C(NC[C@@H]1CCNC1)NC1[C@@H](O)C(OC2[C@@H](F)[C@H](O[C@H]3OC(CN)[C@@H](O)CC3N)C(N)C[C@H]2NC(=O)[C@@H](O)CCN)O[C@H](CO)[C@H]1O (some centres unmarked) [ABX5039]", 2),
]

Please give MIC90, item by item, for the list that follows.
1. N=C(N)NC1C(O)[C@@H](CO)OC(OC2C(F)[C@H](O[C@H]3OC(CN)[C@@H](O)CC3N)C(N)C[C@H]2NC(=O)[C@@H](O)CCN)[C@@H]1O (some centres unmarked) [ABX5006, Tobra-AHB-F-Gua]
2. N=C(N)NC1[C@@H](O)C(OC2[C@@H](F)[C@H](O[C@H]3OC(CN)[C@@H](O)[C@H](O)C3N)C(N)C[C@H]2NC(=O)[C@@H](O)CCN)O[C@H](CO)[C@H]1O (some centres unmarked) [ABX4006, KanaB-AHB-F-Gua]
3. N=C(NCCN)NC1C(O)[C@@H](CO)OC(OC2C(F)[C@H](O[C@H]3OC(CN)[C@@H](O)CC3N)C(N)C[C@H]2NC(=O)[C@@H](O)CCN)[C@@H]1O (some centres unmarked) [ABX5020, Tobra-AHB-F-Gua-2-amino-ethyl]

1: 2; 2: 4; 3: 8

Item N=C(NC[C@@H]1CCCN1)NC1[C@@H](O)C(OC2[C@@H](F)[C@H](O[C@H]3OC(CN)[C@@H](O)CC3N)C(N)C[C@H]2NC(=O)[C@@H](O)CCN)O[C@H](CO)[C@H]1O (some centres unmarked) [ABX5026] has what recorded MIC90?
2

Hey, just so you know, these numbers are from patent US20220127297A1.
